Test system: RPMI-8226 leukemia
Assay: NCI tumour cell line growth inhibition, 48 h
Each entry below carries its recorded TGI.

- compound: "COc1ccc(C(=O)Cn2c(C(=O)c3ccccc3)nc(-c3ccc(OC)cc3)c2-c2ccc(OC)cc2)cc1"
  TGI: "> 100 µM"
- compound: "COc1cc([C@@H]2c3cc4c(cc3[C@@H](Nc3ccc([N+](=O)[O-])cc3C(=O)c3ccccc3)[C@H]3COC(=O)[C@H]23)OCO4)cc(OC)c1OC"
  TGI: "> 100 µM"
- compound: "O=c1[nH]cc(N=Cc2cc(Cl)cc(Cl)c2O)c(=O)[nH]1"
  TGI: "70.6 µM"
- compound: "O=C1C(=Cc2ccc(O)cc2)N=C(c2ccccc2)N1n1c(-c2ccccc2)nc2ccccc2c1=O"
  TGI: "> 100 µM"

Provide only the value of recorded TGI for CCN(CCO)CC1CCCC2CCCCC21 (stereo not given)
> 100 µM

###

Each entry below carries its recorded TGI.
Tested on: SR leukemia
Assay: NCI tumour cell line growth inhibition, 48 h
Field: numeric (µM). Do not append units.

Study these solved cases before continuing.
- compound: "Cn1cnc([N+](=O)[O-])c1Sc1nnc(-c2cccnc2)n1C"
  valueReported: 45.5
- compound: "Clc1cc(OC2C3CC4CC(C3)CC2C4)nc(Cl)n1 (stereo not given)"
  valueReported: 11.7

Fill in TGI for Cc1cc(O)c2c(=O)c3ccccc3[nH]c2c1 tested with SR leukemia.
52.6

Fill in TGI for CC(C)/C(Cl)=N\OC(=O)Nc1ccc(S(N)(=O)=O)cc1 tested with SR leukemia.
5.17

Fill in TGI for C#Cc1ccc(-n2c(/C=C/c3ccc(C(F)(F)F)cc3)nc3ncccc3c2=O)cc1 tested with SR leukemia.
8.08

###

Test system: SK-MEL-2 melanoma
Test: NCI tumour cell line growth inhibition, 48 h
endpointName: GI50

Study these solved cases before continuing.
- molecule: "CC1(C)CCc2c(c3c(c4c(=O)c(O)c(-c5ccc(O)cc5)oc24)OC(C)(C)CC3)O1"
  testedOn: "SK-MEL-2 melanoma"
  valueReported: "67.2 µM"
- molecule: "O=C([O-])CC(=O)[O-].O=C([O-])CC(=O)[O-].[K+].[Pd+2]"
  testedOn: "SK-MEL-2 melanoma"
  valueReported: "> 100 µM"
- molecule: "COc1ccc(-c2nc3sccn3c2/C(N)=N/C(=N)N)cc1OC"
  testedOn: "SK-MEL-2 melanoma"
  valueReported: "29.4 µM"
- molecule: "CSc1nc2c(c(=O)[nH]1)N=C1c3ccccc3C(=O)C1C(c1ccccc1)N2 (stereo not given)"
  testedOn: "SK-MEL-2 melanoma"
  valueReported: "9.02 µM"
- molecule: "OCc1ccc(N2CCC2c2ccc(F)cc2)cc1Cl (stereo not given)"
  testedOn: "SK-MEL-2 melanoma"
  valueReported: "11.4 µM"
- molecule: "COC1=CC(c2ccc[nH]2)=N/C1=C\\c1[nH]c(C)c(C(=O)OC(C)C)c1C"
  testedOn: "SK-MEL-2 melanoma"
  valueReported: "0.02 µM"

Provide only the value of recorded GI50 for O=C1/C(=C/c2cccc([N+](=O)[O-])c2)COc2ccc(O)cc21
2.1 µM

Provide only the value of recorded GI50 for COc1cc(CNc2cnc3cc(N)cc(N)c3n2)cc(OC)c1
66.7 µM

Provide only the value of recorded GI50 for O=C(Nc1ccccc1OC(F)(F)F)Nc1n[nH]c2ccccc12
81.4 µM

Provide only the value of recorded GI50 for CCCNC1=C2CC(C)CC(OC)[C@@H](O)[C@H](C)/C=C(\C)C(OC(N)=O)C(OC)/C=C\C=C(/C)C(=O)NC(=CC1=O)C2=O (stereo not given in full)
13.1 µM

###

Each entry below carries its recorded GI50.
Test system: OVCAR-4 ovarian
Assay: NCI tumour cell line growth inhibition, 48 h
Where a SMILES comes first, the peptide text is derived from it. [ ]: non-standard residue; d: D form. The star is where a group is joined. ξ: configuration not given here. X6 = FC(F)(F)c1cc(NC(=S)*)cc(C(F)(F)F)c1; ξF = NC(Cc1ccccc1)C(=O)O

- molecule: "COC(=O)[C@@H]1[C@H](O)[C@H](C)[C@H](O)[C@@](C)(O)/C=C\\C=C(C)C(=O)Nc2c(C)c(OC(C)=O)c3c(c2O)C(=O)C(C)=C2OCOC(=C23)C(C)=C[C@@](C)(O)[C@H](O)[C@@H](C)[C@H]1OC(C)=O"
  valueReported: "63.2 µM"
- molecule: "COC(=O)[C@@H](NC(=O)CNC(=O)[C@H]1CCCN1C(=O)C(Cc1ccccc1)NC(=S)Nc1cc(C(F)(F)F)cc(C(F)(F)F)c1)C(C)C (stereo not given in full) (X6-[ξF][dP]GV-OMe)"
  valueReported: "3.17 µM"
- molecule: "C#Cc1ccc(-n2c(/C=C/c3ccc(C(F)(F)F)cc3)nc3ncccc3c2=O)cc1"
  valueReported: "1.58 µM"
- molecule: "Cc1nc2ccccc2c(N)c1-c1cc(C)c2c(C)nc3ccccc3c2n1"
  valueReported: "0.831 µM"

With those in mind, consider the next molecule.
Fill in GI50 for COc1ccc2c(c1)/C(=C/c1c(C)nc3sc(C)nn13)C(=O)N2 tested with OVCAR-4 ovarian.
14.7 µM

###

Each entry below carries its recorded GI50.
Test system: SNB-19 CNS
Assay: NCI tumour cell line growth inhibition, 48 h

- compound: "COc1ccc(-c2nc3sccn3c2/C(N)=N/C(=N)N)cc1OC"
  endpointName: "GI50"
  valueReported: "35.3 µM"
- compound: "Clc1ccc2c(NCCCCNc3nc(N4CCCCC4)nc4ccccc34)ccnc2c1"
  endpointName: "GI50"
  valueReported: "3.09 µM"

With those in mind, consider the next compound.
Provide only the value of recorded GI50 for CCC(CO)Nc1nc2ccc(Cl)cc2c2ccccc12 (stereo not drawn)
8.53 µM

###

System: IGROV1 ovarian
Assay: NCI tumour cell line growth inhibition, 48 h
endpointName: TGI

Study these solved cases before continuing.
- compound: "CNS(=O)(=O)NNS(=O)(=O)c1ccc2ccccc2c1"
  TGI: "> 100 µM"
- compound: "O=C1C(=O)N(c2ccc(Cl)cc2Cl)C(=O)C(=O)C1c1nc2ccccc2s1"
  TGI: "> 100 µM"
- compound: "CC(N)Cc1ccc(C(=O)Cl)cc1 (stereo not given)"
  TGI: "> 100 µM"

Provide only the value of recorded TGI for O=S(=O)(NC1=NCCN1C(=S)SN1CCn2c1nsc2=S)c1ccc(OC(F)(F)F)cc1
29.1 µM

Provide only the value of recorded TGI for COc1ccc(C(=O)Cn2c(C(=O)c3ccccc3)nc(-c3ccc(OC)cc3)c2-c2ccc(OC)cc2)cc1
> 100 µM

###

Each entry below carries its recorded TGI.
Tested on: HL-60(TB) leukemia
Experiment: NCI tumour cell line growth inhibition, 48 h
Field: numeric (µM). Do not append units.

Study these solved cases before continuing.
- compound: "CCOC(=O)CN1C(=O)c2cccc3cc([N+](=O)[O-])cc(c23)C1=O"
  readoutUnits: "µM"
  TGI: 2.32
- compound: "Cc1cc(C)nc(NS(=O)(=O)c2ccc(NC(=O)c3ccc(Cl)c4c(Nc5ccc(S(=O)(=O)Nc6nc(C)cc(C)n6)cc5)c5ccccc5nc34)cc2)n1"
  readoutUnits: "µM"
  TGI: 11
- compound: "COC1=CC(c2ccc[nH]2)=N/C1=C\\c1[nH]c(C)c(C(=O)OC(C)C)c1C"
  readoutUnits: "µM"
  TGI: 2.89
- compound: "N#CC1=C(N)N(c2ccccc2)C(c2ccco2)C1(C#N)C#N (centres undefined)"
  readoutUnits: "µM"
  TGI: 53.4
- compound: "O=c1[nH]cc(N=Cc2cc(Cl)cc(Cl)c2O)c(=O)[nH]1"
  readoutUnits: "µM"
  TGI: 46.9
- compound: "CC(=O)NNc1nc(C)c(C(=O)NNC(=O)C(=O)Nc2c(Cl)cc([N+](=O)[O-])cc2Cl)s1"
  readoutUnits: "µM"
  TGI: 84.7

Provide only the value of recorded TGI for OCc1ccc(N2CCC2c2ccc(F)cc2)cc1Cl (centres undefined)
51.8

Provide only the value of recorded TGI for O=C(/C=C/c1ccccc1)NC1C=Nc2ccc(Cl)cc2NC1=O (centres undefined)
30.3

###

System: MDA-MB-435
Test: NCI tumour cell line growth inhibition, 48 h
endpointName: TGI

Study these solved cases before continuing.
- compound: "CCCNC1=C2CC(C)CC(OC)[C@@H](O)[C@H](C)/C=C(\\C)C(OC(N)=O)C(OC)/C=C\\C=C(/C)C(=O)NC(=CC1=O)C2=O (stereo not given in full)"
  testedOn: "MDA-MB-435"
  TGI: "28.8 µM"
- compound: "CCC[C@@H](O)C[C@@H]1CCC[C@H](C[C@@H](O)CC)N1C"
  testedOn: "MDA-MB-435"
  TGI: "> 100 µM"
- compound: "O=C1OCC(O)=C1C(c1ccc(Cl)cc1)c1cc2c(cc1O)OCO2 (stereo not given)"
  testedOn: "MDA-MB-435"
  TGI: "> 100 µM"
- compound: "Cn1cc(C2=C(c3cn(C)c4ncccc34)C(=O)NC2=O)c2ccccc21"
  testedOn: "MDA-MB-435"
  TGI: "> 25 µM"

With those in mind, consider the next compound.
Fill in TGI for Cc1c2cnccc2c(C)c2c1c1ccccc1n2CCCN tested with MDA-MB-435.
0.46 µM

The origin of these recorded values is PubChem BioAssay (NCI).
